- SYSTEM NAME: native MDH (Sus scrofa)
- Construct: soluble pig heart MDH from Roche, product #10127248001; purchased Roche 10127248001; host or cells: pig heart
- Sequence (P00346 25-338): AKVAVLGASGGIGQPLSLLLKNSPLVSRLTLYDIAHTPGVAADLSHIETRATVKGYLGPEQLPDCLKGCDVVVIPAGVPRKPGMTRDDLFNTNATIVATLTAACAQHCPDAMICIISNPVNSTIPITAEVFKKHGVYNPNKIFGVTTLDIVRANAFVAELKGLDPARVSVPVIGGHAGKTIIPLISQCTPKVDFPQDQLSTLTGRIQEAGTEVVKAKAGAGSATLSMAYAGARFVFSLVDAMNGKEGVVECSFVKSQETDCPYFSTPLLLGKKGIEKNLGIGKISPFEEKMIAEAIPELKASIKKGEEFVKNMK
- METHOD: Counter-screen for inhibition of native MDH enzymatic activity
- Assay type: biochemical, pig
- CONDITION: log of IC50 (μM scale), with standard deviation; read-out: log(IC50) Native MDH Reporter (converted)
Reported IC50 by item:

Sure, the documented IC50 for O=C(Nc1ccccc1)c1cc(Br)cc(Br)c1O [Compound 13, 3,5-Dibromo-2-hydroxy-N-phenylbenzamide] is 50.1 µM

Entry O=C(Nc1cccc(Cl)c1)c1cccc(Br)c1O [Compound 10] , IC50 reported as > 63.1 µM

Data point: O=C(Nc1cccc(Cl)c1)c1cc(Br)cc(Br)c1O [Compound 9] ; IC50 = 25.1 µM

The measured IC50 associated with O=C(Nc1ccc(Sc2nc3ccccc3s2)c(Cl)c1)c1ccccc1O [Compound 4] reads > 63.1 µM

Please fill in: IC50 reported for O=C(Nc1ccccc1)c1cc(Br)cc(Br)c1 [Compound 26, 3,5-Dibromo-N-phenylbenzamide] = > 63.1 µM
